Reference for the values: patent US20230295213A1

assay_protocol: Pharmacokinetic evaluation in ICR mice, intravenous
Assay type: in vivo
condition_label: mouse; ICR male mice, 1.0 mg/kg intravenous, plasma
Field: label. Allowed values: Met (half-life < 3 h) or Not met (half-life >= 3 h).

Quick check: does C[C@H](Nc1cc(Cl)nc2c1cnn2[C@@H]1O[C@H](COP(=O)(O)CP(=O)(O)O)[C@@H](O)[C@H]1O)c1ccccc1F [Compound a, AB680, reference compound] have half-life under 3 h?
Not met

Quick check: does O=P(O)(O)CP(=O)(O)OC[C@H]1O[C@@H](n2cnc3c(N4CC5(CCCCC5)c5ccccc54)nc(Cl)nc32)[C@@H](O)C1O (some centres unmarked) have half-life under 3 h?
Not met

Quick check: does O=P(O)(O)CP(=O)(O)OC[C@H]1O[C@@H](n2cnc3c(N4CC5(CCC5)c5ccccc54)nc(Cl)nc32)[C@@H](O)C1O (some centres unmarked) have half-life under 3 h?
Not met

Quick check: does O=P(O)(O)CP(=O)(O)OC[C@H]1O[C@@H](n2cnc3c(N4CCC5(CCCc6ccccc65)C4)nc(Cl)nc32)[C@@H](O)C1O (some centres unmarked) have half-life under 3 h?
Met

---

assay_protocol: Pharmacokinetic evaluation in ICR mice, intravenous
Assay type: in vivo
condition_label: mouse; ICR male mice, 1.0 mg/kg intravenous, plasma
Decision: Cmax compared against 10000 ng/mL; not below it gives True, below it gives False.

Hello, I need to know if O=P(O)(O)CP(=O)(O)OC[C@H]1O[C@@H](n2cnc3c(N4CC5(CCCCC5)c5ccccc54)nc(Cl)nc32)[C@@H](O)C1O (stereo partly drawn) [d-7] has measured Cmax not below 10000 ng/mL. Thanks!
True

Hello, I need to know if O=P(O)(O)CP(=O)(O)OC[C@H]1O[C@@H](n2cnc3c(N4CC5(CCCc6ccccc65)C4)nc(Cl)nc32)[C@@H](O)C1O (stereo partly drawn) [d-12] has measured Cmax not below 10000 ng/mL. Thanks!
False

Hello, I need to know if C[C@H](Nc1cc(Cl)nc2c1cnn2[C@@H]1O[C@H](COP(=O)(O)CP(=O)(O)O)[C@@H](O)[C@H]1O)c1ccccc1F [Compound a, AB680, reference compound] has measured Cmax not below 10000 ng/mL. Thanks!
True

Hello, I need to know if O=P(O)(O)CP(=O)(O)OC[C@H]1O[C@@H](n2cnc3c(N4CCC5(CCCc6ccccc65)C4)nc(Cl)nc32)[C@@H](O)C1O (stereo partly drawn) [d-6] has measured Cmax not below 10000 ng/mL. Thanks!
False

Hello, I need to know if O=P(O)(O)CP(=O)(O)OC[C@H]1O[C@@H](n2cnc3c(N4CC5(CCC5)c5ccccc54)nc(Cl)nc32)[C@@H](O)C1O (stereo partly drawn) [d-20] has measured Cmax not below 10000 ng/mL. Thanks!
True

Hello, I need to know if O=P(O)(O)CP(=O)(O)OC[C@H]1O[C@@H](n2cnc3c(N4CCC5(CCCCC5)C4)nc(Cl)nc32)[C@@H](O)C1O (stereo partly drawn) [Compound b, reference compound] has measured Cmax not below 10000 ng/mL. Thanks!
True

---

experimental_system: Recombinant human 5′-nucleotidase (hCD73) (Homo sapiens (Human), UniProt P21589)
Sequence (P21589 27-574): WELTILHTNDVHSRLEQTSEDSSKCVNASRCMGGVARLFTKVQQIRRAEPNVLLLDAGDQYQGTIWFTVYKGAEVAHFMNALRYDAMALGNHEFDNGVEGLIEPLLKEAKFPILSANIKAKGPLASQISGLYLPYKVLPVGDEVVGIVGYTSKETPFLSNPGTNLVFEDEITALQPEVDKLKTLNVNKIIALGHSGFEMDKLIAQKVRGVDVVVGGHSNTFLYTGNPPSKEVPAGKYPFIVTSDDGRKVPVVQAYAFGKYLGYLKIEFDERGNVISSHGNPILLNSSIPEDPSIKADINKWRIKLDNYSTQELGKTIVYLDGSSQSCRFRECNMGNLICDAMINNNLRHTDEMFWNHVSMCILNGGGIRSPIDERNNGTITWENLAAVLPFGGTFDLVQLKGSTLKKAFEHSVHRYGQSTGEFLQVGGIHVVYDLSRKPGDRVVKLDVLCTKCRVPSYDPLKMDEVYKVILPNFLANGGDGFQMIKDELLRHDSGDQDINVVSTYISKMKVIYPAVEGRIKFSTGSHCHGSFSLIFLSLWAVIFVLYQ
assay_protocol: CD73 enzyme inhibition assay (hCD73, AMP substrate, PiColorLock Gold phosphate detection)
condition_label: hCD73 1 nM solution, AMP 60 μM solution, 37° C. 20 min, absorbance 635 nm
measurement_kind: pIC50
When answering, recall that pIC50 equals minus log10 of the concentration in mol/L, and write that number alone.

Bench note: what pIC50 did O=P(O)(O)CP(=O)(O)OC[C@H]1O[C@@H](n2cnc3c(N4CC5(Cc6ccccc6C5)C4)nc(Cl)nc32)[C@@H](O)C1O (stereo partly shown) show?
9.14

Bench note: what pIC50 did O=P(O)(O)CP(=O)(O)OC[C@H]1O[C@@H](n2cnc3c(N4CC(c5ccccc5)C(c5ccccc5)C4)nc(Cl)nc32)[C@@H](O)C1O (stereo partly shown) show?
8.73

Bench note: what pIC50 did O=P(O)(O)CP(=O)(O)OC[C@H]1O[C@@H](n2cnc3c(N4CC5(CCC5)c5ccccc54)nc(Cl)nc32)[C@@H](O)C1O (stereo partly shown) show?
8.89

Bench note: what pIC50 did O=P(O)(O)CP(=O)(O)OC[C@H]1O[C@@H](n2cnc3c(N4CC5(CCCc6ccccc65)C4)nc(Cl)nc32)[C@@H](O)C1O (stereo partly shown) show?
9.40

Bench note: what pIC50 did O=P(O)(O)CP(=O)(O)OC[C@H]1O[C@@H](n2cnc3c(N4CC(c5ccccc5)c5ccccc54)nc(Cl)nc32)[C@@H](O)C1O (stereo partly shown) show?
8.72

Bench note: what pIC50 did O=P(O)(O)CP(=O)(O)OC[C@H]1O[C@@H](n2cnc3c(N4CCC(c5ccccc5)(c5ccccc5)C4)nc(Cl)nc32)C(O)C1O (stereo partly shown) show?
8.75

Bench note: what pIC50 did O=P(O)(O)CP(=O)(O)OC[C@H]1O[C@@H](n2cnc3c(N4CCC5(CCCCC5)C4)nc(Cl)nc32)[C@@H](O)C1O (stereo partly shown) [Compound b, reference compound] show?
8.97

---

assay_protocol: Pharmacokinetic evaluation in ICR mice, intravenous
Format: in vivo
condition_label: mouse; ICR male mice, 1.0 mg/kg intravenous, plasma
I'd be grateful if you could share measured half-life for these entries.
Please give a number only; it is taken to be in min.

Bench note: what half-life did O=P(O)(O)CP(=O)(O)OC[C@H]1O[C@@H](n2cnc3c(N4CC5(CCc6ccccc65)C4)nc(Cl)nc32)[C@@H](O)C1O (stereo partly drawn) show?
33.4

Bench note: what half-life did O=P(O)(O)CP(=O)(O)OC[C@H]1O[C@@H](n2cnc3c(N4CC5(CCCC5)c5ccccc54)nc(Cl)nc32)[C@@H](O)C1O (stereo partly drawn) show?
2370

Bench note: what half-life did O=P(O)(O)CP(=O)(O)OC[C@H]1O[C@@H](n2cnc3c(N4CC5(CCCCCC5)c5ccccc54)nc(Cl)nc32)[C@@H](O)C1O (stereo partly drawn) show?
1730

Bench note: what half-life did O=P(O)(O)CP(=O)(O)OC[C@H]1O[C@@H](n2cnc3c(N4CCC5(CC4)Cc4ccccc4C5)nc(Cl)nc32)[C@@H](O)C1O (stereo partly drawn) show?
53.9

Bench note: what half-life did O=P(O)(O)CP(=O)(O)OC[C@H]1O[C@@H](n2cnc3c(N4CCC5(CCCCC5)C4)nc(Cl)nc32)[C@@H](O)C1O (stereo partly drawn) [Compound b, reference compound] show?
51

Bench note: what half-life did O=P(O)(O)CP(=O)(O)OC[C@H]1O[C@@H](n2cnc3c(N4CC5(CCCc6ccccc65)C4)nc(Cl)nc32)[C@@H](O)C1O (stereo partly drawn) show?
56.9

---

assay_protocol: Pharmacokinetic evaluation in ICR mice, intravenous
Format: in vivo
condition_label: mouse; ICR male mice, 1.0 mg/kg intravenous, plasma
Field: label. Allowed values: true (AUC(0-inf) < 20 µg·h/mL) or false (AUC(0-inf) >= 20 µg·h/mL).

Quick check: does O=P(O)(O)CP(=O)(O)OC[C@H]1O[C@@H](n2cnc3c(N4CCC5(CC4)Cc4ccccc4C5)nc(Cl)nc32)[C@@H](O)C1O (stereo partly drawn) [d-21] have AUC(0-inf) under 20 µg·h/mL?
true

Quick check: does O=P(O)(O)CP(=O)(O)OC[C@H]1O[C@@H](n2cnc3c(N4CC5(CCCC5)c5ccccc54)nc(Cl)nc32)[C@@H](O)C1O (stereo partly drawn) [d-13] have AUC(0-inf) under 20 µg·h/mL?
false

Quick check: does O=P(O)(O)CP(=O)(O)OC[C@H]1O[C@@H](n2cnc3c(N4CC5(CCCc6ccccc65)C4)nc(Cl)nc32)[C@@H](O)C1O (stereo partly drawn) [d-12] have AUC(0-inf) under 20 µg·h/mL?
true

Quick check: does O=P(O)(O)CP(=O)(O)OC[C@H]1O[C@@H](n2cnc3c(N4CC5(CCC5)c5ccccc54)nc(Cl)nc32)[C@@H](O)C1O (stereo partly drawn) [d-20] have AUC(0-inf) under 20 µg·h/mL?
false

Quick check: does C[C@H](Nc1cc(Cl)nc2c1cnn2[C@@H]1O[C@H](COP(=O)(O)CP(=O)(O)O)[C@@H](O)[C@H]1O)c1ccccc1F [Compound a, AB680, reference compound] have AUC(0-inf) under 20 µg·h/mL?
false

---

measurement_kind: IC50

Form: Entry = CCCCCCCCCCCCN(CCCCCCCCCCCC)c1nc(Cl)nc2c1ncn2[C@@H]1O[C@H](COP(=O)(O)CP(=O)(O)O)C(O)[C@@H]1O (stereo partly shown) [Compound 19] | System = UniProtKB P21589 | IC50 = ____
> 100 nM

Form: Entry = C[C@]12C[C@@H]3C[C@](C)(C1)C[C@@](Nc1nc(Cl)nc4c1ncn4[C@@H]1O[C@H](COP(=O)(O)CP(=O)(O)O)C(O)[C@@H]1O)(C3)C2 (stereo partly shown) [Compound 9] | System = UniProtKB P21589 | IC50 = ____
< 10 nM

Form: Entry = CCCCCOC(=O)Nc1nc(Cl)nc2c1ncn2[C@@H]1O[C@H](COP(=O)(O)CP(=O)(O)O)C(O)C1O (stereo partly shown) [Compound 8] | System = UniProtKB P21589 | IC50 = ____
10 to 100 nM

Form: Entry = O=P(O)(O)CP(=O)(O)OC[C@H]1O[C@@H](n2cnc3c(NCc4ccccc4)nc(Cl)nc32)[C@@H](O)C1O (stereo partly shown) [Compound 1] | System = UniProtKB P21589 | IC50 = ____
< 10 nM

Form: Entry = O=P(O)(O)CP(=O)(O)OC[C@H]1O[C@@H](n2cnc3c(N4C5CCC4CC(O)C5)nc(Cl)nc32)[C@@H](O)C1O (stereo partly shown) [Compound 51] | System = UniProtKB P21589 | IC50 = ____
< 10 nM

Form: Entry = O=P(O)(O)CP(=O)(O)OC[C@H]1O[C@@H](n2cnc3c(NCc4ccc5ccccc5c4)nc(Cl)nc32)[C@@H](O)C1O (stereo partly shown) [Compound 7] | System = UniProtKB P21589 | IC50 = ____
< 10 nM

Form: Entry = CCCCCCCCCCCCOC(=O)Nc1nc(Cl)nc2c1ncn2[C@@H]1O[C@H](COP(=O)(O)CP(=O)(O)O)C(O)[C@@H]1O (stereo partly shown) [Compound 15] | System = UniProtKB P21589 | IC50 = ____
< 10 nM
